- Tested on: PPARg:RXRa 270nM:90nM, anti-RXR (NR concentration 270 nM, RXRa partner concentration 90 nM)
- testName: PBM binding z-score (relative to random genomic background probes); higher = stronger binding; sequences stand for … in GC…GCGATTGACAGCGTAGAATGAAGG
quantity: PBM binding z-score
Keep the answer to the number alone.

Study these solved cases before continuing.
sequenceChain: TAGCCTAGGTCATGGGCCAGTCTACCACGCGAAC
PBM binding z-score: 3.49

sequenceChain: TGAAAGAGGTTAAAGATCAGGGAACGTGGCGTCG
PBM binding z-score: 5.44

sequenceChain: TCATATAGGTAAATGTTAGGTGAAAGTCCGATCT
PBM binding z-score: 2.53

sequenceChain: CGTCAATGTTCAAGGTAACGTAACAGAAAGCAGC
PBM binding z-score: 0.03

sequenceChain: CGAATTAGGTCATTGACAGGACAGTGAATAGTAA
PBM binding z-score: 6.02

Query: May I ask what PBM binding z-score has been recorded for ACGGACAGGTGAGTGAAGGTAACTCAGCTGGACG ?
Reply: 0.12

Query: TCTCGGGGGACACGAAAGGTCAGAGCTCGACATC , same question.
Reply: 4.96

Query: ATCGAAAGGTCGACGAGGTGAGGATACACCGTTT , same question.
Reply: 3.46
